// data source = patent US20100041597A1

System Under Test: PKC-ε (Homo sapiens, UniProt Q02156)
Sequence (Q02156 1-737): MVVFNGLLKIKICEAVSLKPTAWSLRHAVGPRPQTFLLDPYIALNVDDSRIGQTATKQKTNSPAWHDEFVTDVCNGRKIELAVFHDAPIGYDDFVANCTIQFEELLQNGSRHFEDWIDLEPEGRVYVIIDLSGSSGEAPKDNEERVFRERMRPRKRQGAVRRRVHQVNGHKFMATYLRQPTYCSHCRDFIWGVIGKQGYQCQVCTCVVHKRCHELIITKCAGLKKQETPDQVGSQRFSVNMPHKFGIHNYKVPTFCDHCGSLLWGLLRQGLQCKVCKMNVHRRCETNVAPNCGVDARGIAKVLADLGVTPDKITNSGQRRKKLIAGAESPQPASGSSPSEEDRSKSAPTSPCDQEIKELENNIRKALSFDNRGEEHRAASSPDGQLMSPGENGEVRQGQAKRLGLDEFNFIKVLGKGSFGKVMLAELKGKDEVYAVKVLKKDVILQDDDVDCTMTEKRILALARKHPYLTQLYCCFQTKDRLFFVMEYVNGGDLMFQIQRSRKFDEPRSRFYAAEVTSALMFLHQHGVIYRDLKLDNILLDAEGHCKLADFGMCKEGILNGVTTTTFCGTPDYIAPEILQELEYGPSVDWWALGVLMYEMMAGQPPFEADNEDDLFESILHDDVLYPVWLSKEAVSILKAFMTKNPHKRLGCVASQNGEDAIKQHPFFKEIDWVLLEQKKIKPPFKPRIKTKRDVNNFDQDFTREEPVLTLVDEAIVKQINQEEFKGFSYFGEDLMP
Protocol Summary: ELISA-based competitive binding assay with purified PKC isoform
Design: key: —: no detectable affinity; Low to very low affinity at 10X or 20X or both PRE concentrations in at least one cell line in the cell extract assay; Low affinity in purified isoform assay.; Moderate affinity at 10X or 20X or both PRE concentrations in at least one cell line in the cell extract assay.; High affinity at 10X or 20X or both PRE concentrations in at least one cell line in the cell extract assay; High affinity in purified isoform assay
Condition Details: Purified isoform; Table 20
Experimental: Peptides PRE 1, 2, 3, 4, 5, 6, 7, 8, 9, 10, 11, 12 and 13 (see Table 3) were tested for their ability to interfere with binding of PKC isoform-specific antibodies to their target PKC isoforms using a competitive binding assay and purified PKC isoforms. Procedure: Competitive binding was assessed using a 96 well plate ELISA-based assay as described below. […] Calculations: The OD values measured at 405 nm represent the free PKC coated per well. […]
Endpoint Name: Affinity for PKC isoform ε

// worked examples, Affinity for PKC isoform ε included
[[record]]
substance = "ILEDKGGDAQNLIGISI [PRE 8]"
result = "—"

[[record]]
substance = "Ac-ISIGILQNADK-NH2 [PRE 7]"
result = "L"

[[record]]
substance = "Ac-KDANQLIGISI-NH2 [PRE 6]"
result = "—"

[[record]]
substance = "Ac-RDAQNLI-NH2 [PRE 13]"
result = "—"

[[record]]
substance = "RRKKGGKDFVVKR [PRE 1]"
result = "—"


Fill in Affinity for PKC isoform ε for record Ac-RDAQNLIGISI-NH2 [PRE 11] L

Fill in Affinity for PKC isoform ε for record Ac-AKGIQEVKGGDAQNLIGISI-NH2 [PRE 3] H
